Provide the reported Activity of each item.
Test system: Radical scavenging activity
Test: Antioxidant activity assessed as DPPH radical scavenging activity at 1 mg/mL after 15 min UV-vis spectrophotometric analysis relative to control
Type: functional
Write the number in % without appending the unit.

Look up Activity for this molecule: O=[N+]([O-])c1cccc(-c2ccc(C(O)c3cc4cc(-c5cccc([N+](=O)[O-])c5)ccc4o3)cc2)c1 (stereo unspecified)
19.9

Can you share its Activity? I mean this molecule: CCOc1ccccc1-c1ccc(C(O)(Cc2ccccc2)c2cc3cc(-c4ccccc4OCC)ccc3o2)cc1 (stereo unspecified)
16.4

Requested field: Activity. Item: CCc1ccc(-c2ccc(C(O)c3cc4cc(-c5ccc(CC)cc5)ccc4o3)cc2)cc1 (stereo unspecified)
55.7

Return reported Activity; argument: `CC(=O)c1ccccc1-c1ccc(C(=O)c2cc3cc(-c4ccccc4C(C)=O)ccc3o2)cc1`
19

Entry `O=C(c1ccc(-c2cccc([N+](=O)[O-])c2)cc1)c1cc2cc(-c3cccc([N+](=O)[O-])c3)ccc2o1` : reported Activity = ?
19.5

Activity for `O=C(c1ccc(-c2ccccc2F)cc1)c1cc2cc(-c3ccccc3F)ccc2o1` ?
18.7

I'd like to know its Activity. The molecule in question is CCOc1ccccc1-c1ccc(C(O)(CC)c2cc3cc(-c4ccccc4OCC)ccc3o2)cc1 (stereo unspecified)
5.5

I would be grateful if you could share the reported Activity for `Cc1cc(C(C)(C)C)c(O)c(C(C)(C)C)c1` .
90.4

Given the entry CCc1ccc(-c2ccc(C(O)(CC)c3cc4cc(-c5ccc(CC)cc5)ccc4o3)cc2)cc1 (stereo unspecified) , report its measured Activity.
55.2

So what does the record say about Activity for CC(C)(C)C(O)(c1ccc(-c2ccccc2)cc1)c1cc2cc(-c3ccccc3)ccc2o1 (stereo unspecified) ?
18.8

Any idea what Activity was measured for CS(=O)(=O)c1cccc(-c2ccc(C(O)c3cc4cc(-c5cccc(S(C)(=O)=O)c5)ccc4o3)cc2)c1 (stereo unspecified) ?
39.8

----------
Test system: Candida albicans
Experiment: Antifungal activity against Candida albicans NCPF 3179 assessed as growth inhibition at 1 to 50 mg/mL after 3 days
Type: functional, organism-based
Calls of active or inactive are those of the source. The rule behind the calls is not given here.
property: growth inhibition (GI)

1) CCOc1ccccc1-c1ccc(C(O)(c2cc3cc(-c4ccccc4OCC)ccc3o2)C(C)C)cc1 (stereo not drawn) = inactive
2) N#Cc1ccc(Cl)c(-c2ccc(C(=O)c3cc4cc(-c5cc(C#N)ccc5Cl)ccc4o3)cc2)c1 = inactive
3) CCc1ccc(-c2ccc(C(O)(c3cc4cc(-c5ccc(CC)cc5)ccc4o3)C(C)(C)C)cc2)cc1 (stereo not drawn) = inactive
